Every entry's value here was drawn from paper PMC7529893.

Target: MAGE-A11:PCF11 interaction (GST-MAGE-A11 and FAM-PCF11_4) (Homo sapiens)
Construct: GST-MAGE-A11 MHD (human MAGE-A11 MHD amino acid 218-429); made in house; host or cells: E. coli BL21(DE3)
Sequence (P43364 218-429): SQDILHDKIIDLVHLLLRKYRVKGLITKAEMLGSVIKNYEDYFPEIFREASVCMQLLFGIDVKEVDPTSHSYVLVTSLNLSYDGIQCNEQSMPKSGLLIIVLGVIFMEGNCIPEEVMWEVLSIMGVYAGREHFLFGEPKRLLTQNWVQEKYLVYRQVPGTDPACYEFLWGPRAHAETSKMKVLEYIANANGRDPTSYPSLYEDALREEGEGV
Assay: TR-FRET primary / single point screen at 15 µM
Format: binding
Conditions: single point TR-FRET screening of quinoline compounds against MAGE-A11:PCF11; 15 µM
Please go through the items and note down their percent inhibition (TR-FRET).
Format: numeric value only, no unit, no commentary.

Report percent inhibition (TR-FRET) for CCCN(CCCNc1ccnc2cc(Cl)ccc12)Cc1cc2ccccc2nc1Cl please. 12.7954

How about COC(=O)CCCCCNCCCNc1ccnc2cc(Cl)ccc12 ? 39.1213

How about CCCN(CCCNc1ccnc2cc(C(F)(F)F)ccc12)Cc1cc(Br)cs1 ? -9.243

How about CCCN(CCCNc1ccnc2cc(Cl)ccc12)Cc1ccco1 ? 3.483

How about Clc1ccc2c(NCCCN(CCCc3ccccc3)Cc3ccccc3)ccnc2c1 ? 6.074

How about CCCN(CCCNc1ccnc2cc(C(F)(F)F)ccc12)Cc1cc2ccccc2o1 ? -20.4102

How about CCCN(CCCNc1ccnc2cc(Cl)ccc12)Cc1cccnc1Br ? 13.3074

How about CCCN(CCCNc1ccnc2cc(Cl)ccc12)Cc1cccc2c1OCO2 ? 18.1434

How about COc1ccc(CN(CCCNc2ccnc3cc(Cl)ccc23)Cc2ccccc2)cc1F ? 23.6478

How about FC(F)(F)c1ccc2c(NCCCNCc3nc4ccccc4s3)ccnc2c1 ? 14.4336

How about Cc1cc(C)c(CN(CCCNc2ccnc3cc(Cl)ccc23)Cc2ccccc2)c(C)c1 ? 31.1941

How about CCCN(CCCNc1ccnc2cc(Cl)ccc12)Cc1cccc(C#N)c1 ? 12.9099

How about CCCN(CCCNc1ccnc2cc(Cl)ccc12)Cc1ccc2c(c1)OCO2 ? 18.7467

How about Clc1ccc2c(NCCCN(Cc3ccccc3)Cc3ccoc3)ccnc2c1 ? 12.8437

How about CCCCCN(CCCNc1ccnc2cc(Cl)ccc12)Cc1ccccc1 ? 26.5568

How about CCCN(CCCNc1ccnc2cc(C(F)(F)F)ccc12)CC1CC1 ? 48.1534

How about Clc1ccc2c(NCCCNCc3cc4ccccc4s3)ccnc2c1 ? 30.1342

How about CCCN(CCCNc1ccnc2cc(C(F)(F)F)ccc12)Cc1nc(C)cs1 ? 0.8927

How about Clc1ccc2c(NCCCNCc3ccncc3)ccnc2c1 ? 6.077

* * *

target: MAGE-A11:PCF11 interaction (GST-MAGE-A11 MHD and FAM-PCF11_4) (Homo sapiens, UniProt P43364); construct: GST-MAGE-A11 MHD (human MAGE-A11 MHD amino acid 218-429); made in house; host or cells: E. coli BL21(DE3); experiment: TR-FRET dose response test of compounds for disruption of MAGE-A11:PCF11 binding; details: Dose response TR-FRET screening of nine scaffold groups against MAGE-A11:PCF11; read-out: consensus IC50
Please go through the items and note down their log10(IC50).
Record value = log10 of IC50 given in µM.

Report log10(IC50) for CN(C)c1ccc(NC2=C(Cl)C(=O)c3ccccc3C2=O)cc1 please. 0.52

How about Cc1ccc(NC2=C(N)C(=O)c3ccccc3C2=O)cc1 ? 1.78

How about COc1ccc(C(F)(F)F)cc1CNCCCNc1ccnc2cc(C(F)(F)F)ccc12 ? 1.84

How about COc1cccc(CNCCCNc2ccnc3cc(C4CCCCC4)ccc23)c1O ? 1.51

How about COc1ccc(F)cc1CNCCCNc1ccnc2cc(-c3ccc(F)cc3)ccc12 ? 1.59

How about Cc1ccc(C2Nc3ccccc3C(=O)N2CCCN2CCOCC2)cc1 (stereo not drawn) ? 1.82

How about c1cc(CNCCCNc2ccnc3cc(C4CCCCC4)ccc23)c2c(c1)OCO2 ? 1.37

How about NC1=C(Nc2ccc(Cl)cc2)C(=O)c2ccccc2C1=O ? 1.73
